measured_on: S. aureus DNA gyrase (Staphylococcus aureus, UniProt P0A0K8+P20831)
Sequence (P20831 whole entry): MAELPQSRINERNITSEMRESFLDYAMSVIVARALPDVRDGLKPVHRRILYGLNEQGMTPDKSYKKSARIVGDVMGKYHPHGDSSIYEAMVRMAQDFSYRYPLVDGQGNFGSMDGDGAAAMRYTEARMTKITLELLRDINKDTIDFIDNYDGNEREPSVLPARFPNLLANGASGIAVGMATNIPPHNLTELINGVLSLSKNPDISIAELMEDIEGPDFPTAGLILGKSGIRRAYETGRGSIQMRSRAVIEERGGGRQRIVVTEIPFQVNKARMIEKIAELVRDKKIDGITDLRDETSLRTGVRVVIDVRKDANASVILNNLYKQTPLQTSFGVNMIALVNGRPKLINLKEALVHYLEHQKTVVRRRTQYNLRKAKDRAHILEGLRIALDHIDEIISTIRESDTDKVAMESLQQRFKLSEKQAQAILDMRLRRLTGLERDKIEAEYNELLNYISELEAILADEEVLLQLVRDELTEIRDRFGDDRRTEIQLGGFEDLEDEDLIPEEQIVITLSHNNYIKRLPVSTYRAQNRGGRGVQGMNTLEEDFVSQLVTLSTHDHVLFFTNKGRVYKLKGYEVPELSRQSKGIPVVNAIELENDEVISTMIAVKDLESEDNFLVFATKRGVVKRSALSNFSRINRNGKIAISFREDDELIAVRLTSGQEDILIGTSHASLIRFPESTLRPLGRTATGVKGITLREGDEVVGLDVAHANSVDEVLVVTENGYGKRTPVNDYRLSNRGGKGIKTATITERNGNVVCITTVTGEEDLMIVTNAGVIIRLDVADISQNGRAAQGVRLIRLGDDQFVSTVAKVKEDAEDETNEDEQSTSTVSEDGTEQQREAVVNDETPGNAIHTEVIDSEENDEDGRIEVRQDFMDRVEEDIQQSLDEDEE
Sequence (P0A0K8 whole entry): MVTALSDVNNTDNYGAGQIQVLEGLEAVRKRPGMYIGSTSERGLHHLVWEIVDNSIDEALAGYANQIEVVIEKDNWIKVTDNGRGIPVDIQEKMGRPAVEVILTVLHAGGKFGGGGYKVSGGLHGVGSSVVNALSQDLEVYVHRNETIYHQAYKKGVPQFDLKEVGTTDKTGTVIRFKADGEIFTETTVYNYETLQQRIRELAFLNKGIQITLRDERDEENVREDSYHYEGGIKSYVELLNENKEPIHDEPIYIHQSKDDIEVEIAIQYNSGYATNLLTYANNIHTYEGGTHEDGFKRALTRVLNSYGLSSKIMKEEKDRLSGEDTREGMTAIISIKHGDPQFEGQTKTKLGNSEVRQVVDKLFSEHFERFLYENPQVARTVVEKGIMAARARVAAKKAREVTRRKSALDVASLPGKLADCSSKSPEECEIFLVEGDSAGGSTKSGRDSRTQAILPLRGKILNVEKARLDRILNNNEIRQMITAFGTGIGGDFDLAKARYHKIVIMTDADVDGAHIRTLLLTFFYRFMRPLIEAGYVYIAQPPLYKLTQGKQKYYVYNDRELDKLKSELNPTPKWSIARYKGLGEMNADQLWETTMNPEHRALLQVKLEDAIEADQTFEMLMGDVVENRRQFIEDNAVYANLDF
measurement_protocol: biochemical
Listing of entries alongside the reported IC50.

{"compound": "CC=CC(=O)N1CCN(c2cc3c(cc2F)c(=O)c(C(=O)O)cn3C2CC2)CC1 [Compound 1]", "IC50": "> 160 µM"}
{"compound": "C/C=C/C(=O)N1CCCC2CN(c3c(F)cc4c(=O)c(C(=O)O)cn(C5CC5)c4c3OC)CC21 (centres unmarked) [Compound 1m]", "IC50": "> 136 µM"}
{"compound": "C/C=C/C=C/C(=O)N1CCCC2CN(c3c(F)cc4c(=O)c(C(=O)O)cn(C5CC5)c4c3OC)CC21 (centres unmarked) [Compound 2m]", "IC50": "> 129 µM"}
{"compound": "COc1c(N2CC3CCCN(C(=O)/C=C(\\C)CCC=C(C)C)C3C2)c(F)cc2c(=O)c(C(=O)O)cn(C3CC3)c12 (centres unmarked) [Compound 3m]", "IC50": "> 116 µM"}
{"compound": "CC=CC=CC(=O)N1CCN(c2cc3c(cc2F)c(=O)c(C(=O)O)cn3C2CC2)CC1 [Compound 2]", "IC50": "79.9 µM"}
{"compound": "CC(C)=CCCC(C)=CC(=O)N1CCN(c2cc3c(cc2F)c(=O)c(C(=O)O)cn3C2CC2)CC1 [Compound 3]", "IC50": "107 µM"}
{"compound": "CC/C=C\\C/C=C\\C/C=C\\C/C=C\\C/C=C\\C/C=C\\CCC(=O)N1CCCC2CN(c3c(F)cc4c(=O)c(C(=O)O)cn(C5CC5)c4c3OC)CC21 (centres unmarked) [Compound 8m]", "IC50": "> 89.9 µM"}
{"compound": "COc1c(N2CC3CCCN(C(C)=O)C3C2)c(F)cc2c(=O)c(C(=O)O)cn(C3CC3)c12 (centres unmarked) [Compound 14m]", "IC50": "133 µM"}

====

Tested on: E. coli ATCC 25922
measurement_protocol: MIC, twofold microdilution, standard strain
Type: cell-based, Escherichia coli
condition_parameters: Escherichia coli, ATCC25922; 18 h of treatment; read-out: MIC E. coli ATCC 25922
Listing of entries alongside the reported MIC.

{"molecule": "CCCCCCCC/C=C/CCCCCCCC(=O)N1CCCC2CN(c3c(F)cc4c(=O)c(C(=O)O)cn(C5CC5)c4c3OC)CC21 (stereo not shown)", "measured_on": "E. coli ATCC 25922", "units_text": "µg/mL", "modifier": ">", "MIC": 512}
{"molecule": "CCCCCCCC/C=C\\CCCCCCCC(=O)N1CCCC2CN(c3c(F)cc4c(=O)c(C(=O)O)cn(C5CC5)c4c3OC)CC21 (stereo not shown)", "measured_on": "E. coli ATCC 25922", "units_text": "µg/mL", "modifier": "=", "MIC": 512}
{"molecule": "CCCCCCCCCCCCCCCCCC(=O)N1CCCC2CN(c3c(F)cc4c(=O)c(C(=O)O)cn(C5CC5)c4c3OC)CC21 (stereo not shown) [Compound 16m]", "measured_on": "E. coli ATCC 25922", "units_text": "µg/mL", "modifier": "=", "MIC": 128}
{"molecule": "C/C=C/C(=O)N1CCCC2CN(c3c(F)cc4c(=O)c(C(=O)O)cn(C5CC5)c4c3OC)CC21 (stereo not shown)", "measured_on": "E. coli ATCC 25922", "units_text": "µg/mL", "modifier": "=", "MIC": 16}
{"molecule": "CCCCC/C=C\\C/C=C\\CCCCCCCC(=O)N1CCCC2CN(c3c(F)cc4c(=O)c(C(=O)O)cn(C5CC5)c4c3OC)CC21 (stereo not shown) [Compound 11m]", "measured_on": "E. coli ATCC 25922", "units_text": "µg/mL", "modifier": ">", "MIC": 512}
{"molecule": "C=CCCCCC(=O)N1CCCC2CN(c3c(F)cc4c(=O)c(C(=O)O)cn(C5CC5)c4c3OC)CC21 (stereo not shown) [Compound 10m]", "measured_on": "E. coli ATCC 25922", "units_text": "µg/mL", "modifier": "=", "MIC": 32}
{"molecule": "CCCCC/C=C\\C/C=C\\C/C=C\\CCCCC(=O)N1CCCC2CN(c3c(F)cc4c(=O)c(C(=O)O)cn(C5CC5)c4c3OC)CC21 (stereo not shown) [Compound 12m]", "measured_on": "E. coli ATCC 25922", "units_text": "µg/mL", "modifier": "=", "MIC": 128}
